Reference source for all entries: paper PMC9911399

- target_or_system: T1, RBFOX1 RRM (Homo sapiens, UniProt Q9NWB1 109-208)
- T1 sequence: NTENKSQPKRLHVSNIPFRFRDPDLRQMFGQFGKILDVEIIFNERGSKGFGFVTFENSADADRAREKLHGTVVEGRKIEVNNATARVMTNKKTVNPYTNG
- procedure_summary: EMSA; HiTS-Eq, 1 nM pool, 10 min; buffer printed only for the single-RNA assays: 10 mM Tris pH 7.5, 150 mM NaCl, 3.4 mM EDTA, 0.001% NP-40, 30 C
- assay_conditions: tags: His6 N-terminal (pET28a); label: 5' 32P
The full ranking holds about 16,000 sequences; the median of “ka relative to ugcaugu” is about 0.0091, and the highest 2% start at about 0.032. Shown is part of a subset that was picked to be rich in the highest values.

binder	binding signal
UGUAUUG (DNA:RNA) RNA: GGGAGACCGGAAUUCAGAUUGUCCUGUAUUGUUAAAUCCCGUCGUAGCCACCA DNA 1: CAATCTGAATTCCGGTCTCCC DNA 2: TGGTGGCTACGACGGGATT	0.0262 KA relative to UGCAUGU
UGUAUGC (DNA:RNA) RNA: GGGAGACCGGAAUUCAGAUUGUCCUGUAUGCUUAAAUCCCGUCGUAGCCACCA DNA 1: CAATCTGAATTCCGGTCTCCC DNA 2: TGGTGGCTACGACGGGATT	0.0374 KA relative to UGCAUGU
